Target: T1, ParB 65-139 (RHH domain) (Leifsonia xyli subsp. cynodontis …, UniProt Q6EEF9 65-139)
T1 sequence: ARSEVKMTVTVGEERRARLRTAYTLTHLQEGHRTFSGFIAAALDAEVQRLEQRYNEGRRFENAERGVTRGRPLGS
Test: ITC
Reported Property: pKd
Answers are plain numbers, as −log10 of the molar value.

// worked examples, pKd included
R3-18-8C (dsDNA) DNA 1: GGAATAGCTGGAAAAGCC DNA 2: GGCTTTTCCAGCTATTCC; 7.49
R3-18-12T (dsDNA) DNA 1: GGAATAGGTGGTAAAGCC DNA 2: GGCTTTACCACCTATTCC; 7.24
R3-18-9A (dsDNA) DNA 1: GGAATAGGAGGAAAAGCC DNA 2: GGCTTTTCCTCCTATTCC; 6.84
R3-18-18A (dsDNA) DNA 1: GGAATAGGTGGAAAAGCA DNA 2: TGCTTTTCCACCTATTCC; 7.34
R3-18-18G (dsDNA) DNA 1: GGAATAGGTGGAAAAGCG DNA 2: CGCTTTTCCACCTATTCC; 7.15

For the 5 binders below, give their pKd values.
1. R3-18-4C (dsDNA) DNA 1: GGACTAGGTGGAAAAGCC DNA 2: GGCTTTTCCACCTAGTCC
2. R3-18-11T (dsDNA) DNA 1: GGAATAGGTGTAAAAGCC DNA 2: GGCTTTTACACCTATTCC
3. R3-18-7C (dsDNA) DNA 1: GGAATACGTGGAAAAGCC DNA 2: GGCTTTTCCACGTATTCC
4. R3-18-7T (dsDNA) DNA 1: GGAATATGTGGAAAAGCC DNA 2: GGCTTTTCCACATATTCC
5. R3-18-14T (dsDNA) DNA 1: GGAATAGGTGGAATAGCC DNA 2: GGCTATTCCACCTATTCC

Response given:
1: 7.35; 2: 7.39; 3: 7.44; 4: 7.46; 5: 7.34

All figures here come from paper PMC3074162.
